Consider the following molecules; for each one, report its percent effect (mortality or growth inhibition) at 200 ppm.
# Tested on: Plutella xylostella (Diamond Back Moth)
# PROCEDURE_SUMMARY: Plutella xylostella (diamond back moth) artificial diet test
# Type: in vivo
# EXPERIMENTAL_CONTEXT: 120 h, application rate of 200 ppm, L2 larvae, 5 days after infestation, in comparison to untreated samples, read-out: effect in at least one of the two categories (mortality or growth inhibition)

# percent effect (mortality or growth inhibition) at 200 ppm lookup, item Cc1cc(C2=NO[C@@](c3cc(Cl)c(F)c(Cl)c3)(C(F)(F)F)C2)ccc1C(=O)NC(C)C1(C#N)CC1 (stereo partly shown)
≥ 80%

# percent effect (mortality or growth inhibition) at 200 ppm lookup, item Cc1cc(C2=NO[C@@](c3cc(Cl)c(F)c(Cl)c3)(C(F)(F)F)C2)ccc1C(=O)NCC1(C#N)CC1
≥ 80%

# percent effect (mortality or growth inhibition) at 200 ppm lookup, item CCOC(=O)N(CC1(C#N)CC1)C(=O)c1ccc(C2=NO[C@@](c3cc(Cl)c(F)c(Cl)c3)(C(F)(F)F)C2)cc1C
≥ 80%

# percent effect (mortality or growth inhibition) at 200 ppm lookup, item Cc1cc(C2=NO[C@@](c3cc(Cl)c(F)c(Cl)c3)(C(F)(F)F)C2)ccc1C(=O)NCC1(C(N)=S)CC1
≥ 80%

# percent effect (mortality or growth inhibition) at 200 ppm lookup, item Cc1cc(C2=NO[C@@](c3cc(Cl)c(F)c(Cl)c3)(C(F)(F)F)C2)ccc1C(=O)NCC1(C(N)=O)CC1
≥ 80%

# percent effect (mortality or growth inhibition) at 200 ppm lookup, item N#CC1(CNC(=O)c2ccc(C3=NOC(c4cc(Cl)cc(Cl)c4)(C(F)(F)F)C3)cn2)CC1 (racemic)
≥ 80%

# percent effect (mortality or growth inhibition) at 200 ppm lookup, item Cc1cc(C2=NOC(c3cc(Cl)cc(Cl)c3)(C(F)(F)F)C2)ncc1C(=O)NCC1(C#N)CC1 (racemic)
≥ 80%
